Reported Pigweed plant response rating values for the following molecules.
Test system: pigweed (Amaranthus retroflexus)
Experiment: Test A postemergence, visual injury rating
Assay type: in vivo
Conditions: 31 g ai/ha, 0 to 100 scale, 0 is no effect, 100 is complete control, approximately 10 days
Answer field: number only, no words.

# example entries with known answers
> print(dat)
                                   molecule  numeric.value
1  O=C(OCC(F)(F)C(F)F)c1c(Br)cccc1Oc1ncc(Cl)cn1 [Compound 103]             90
2  FC(F)(F)COCc1c(Br)cccc1Oc1ncc(Cl)cn1 [Compound 62]             50
3  CCOc1cccc(Oc2ncc(Cl)cn2)c1C(=O)OCCC(F)(F)F [Compound 116]             40
4  FC(F)(F)CCCc1c(Br)cccc1Oc1ncc(Cl)cn1 [Compound 89]             90
5  C#CCCOC(=O)c1c(Br)cccc1Oc1ncc(Cl)cn1 [Compound 38]             80

I am curious: what Pigweed plant response rating value has been reported for C=CC(C)COC(=O)c1c(Br)cccc1Oc1ncc(Cl)cn1 (stereo not drawn) [Compound 37] ? 20

Give the measured Pigweed plant response rating of CCCC(=O)c1c(C#N)cccc1Oc1ncc(Cl)cn1 [Compound 67] . 0

Consider the molecule CN(CCC(F)(F)F)C(=O)c1c(Br)cccc1Oc1ncc(Cl)cn1 [Compound 19] and give its measured Pigweed plant response rating. 10

Suppose we examine the molecule Cc1ccc(Oc2ncc(Cl)cn2)c(C(=O)OCCC(F)(F)F)c1 [Compound 54] ; what Pigweed plant response rating value has been reported? 0
